Readings of growth for the listed compounds
system: EKVX NSCLC; assay: NCI-60 one-dose screen, 48 h (100 = growth as untreated, 0 = no growth, -100 = all killed); settings: 10 µM unless noted
Compounds without any hit were thinned out: in the full panel of roughly 83,000, 20% have a hit. Calls of active or inactive are those of the source. Rule for the calls: active = growth percent below 10; inactive = the rest.

Look over these answered cases.
INSERT INTO results (compound, measured_value) VALUES
  ('Cn1c2c(Cl)c(Cl)ccc2c2c(C#N)c[nH]c(=O)c21', '98.9% (inactive)'),
  ('Cc1ccnc2c(OCc3ccccc3)cccc12', '78.6% (inactive)'),
  ('O=C(/C(=C(\C(=O)c1ccccc1)c1ccccc1)c1ccccc1)c1ccccc1', '40.5% (inactive)'),
  ('COc1c(N)c2c(c([N+](=O)[O-])c1OC)C(=O)OC2', '111% (inactive)'),
  ('O=[N+]([O-])c1cc(S(=O)(=O)c2ccc(F)c([N+](=O)[O-])c2)ccc1F', '117% (inactive)'),
  ('N#C/C(=C\c1ccc(-c2ccc(Br)cc2)o1)c1nc(-c2ccco2)cs1', '41.6% (inactive)'),
  ('CCCCn1c(-c2ccc(O)cc2)cn2c3c(=O)[nH]c(=O)n(C)c3nc12', '85.9% (inactive)'),
  ('COCCNC1=C(Cl)C(=O)c2ccccc2C1=O', '108% (inactive)');

# input compound: Cn1cc(-c2csc(-c3cn(CCCN4CCCCC4)c4ccc(F)cc34)n2)c2cccnc21 ; wanted: its growth 77.3% (inactive)

Try O=C1CNCCN1 next. 101% (inactive)
